I'd appreciate it if you could supply minimal effective concentration values for the items below.
System: contraction of guinea pig ileum induced by electrical field stimulation (acetylcholine release)
run_description: Effect of increasing contraction of guinea pig ileum induced by electrical field stimulation
Format: cell-based
reported_conditions: Cavia porcellus, 10 min, electrical field stimulation once per 10 seconds; cumulative addition at intervals of 10 minutes; 37° C.; read-out: Min. concn. causing increment of ileal contraction
Description: Effect of increasing contraction of guinea pig ileum induced by electrical field stimulation This experiment was made according to the method of Sanger et al. [see Br. J. Pharmacol., 91, 77-87 (1987)]. The longitudinal muscle of the nonterminal ileum of a guinea pig was separated and vertically suspended in the Krebs-Henseleit solution (37° C.) in a Magnus tube by applying a load of 0.5 g to the end of the muscle. […] The contraction of the muscle was isometrically determined. […]
Where a name gives a salt, the structure may show the parent alone.
The answer is to be given in µM; state only the numeric part.

**Q:** Reported minimal effective concentration, compound CC#CC(C)Oc1cc(N)c(Cl)cc1C(=O)N[C@H]1C[C@H]2CC[C@@H](C1)N2C (stereo partly shown) [Example 2, hydrochloride] : ____
**A:** 0.05

**Q:** Try this compound next: CN1[C@@H]2CC[C@H]1C[C@@H](NC(=O)c1cc(Cl)c(N)cc1OCCF)C2 [Example 30, hydrochloride]
**A:** 0.038

**Q:** Same question, C#CCCOc1cc(N)c(Cl)cc1C(=O)N[C@H]1C[C@H]2CC[C@@H](C1)N2C [Example 46, hydrochloride] this time
**A:** 0.16

---

Test system: contraction of guinea pig ileum induced by electrical field stimulation (acetylcholine release)
run_description: Effect of increasing contraction of guinea pig ileum induced by electrical field stimulation
Assay type: cell-based
reported_conditions: Cavia porcellus, 10 min, electrical field stimulation once per 10 seconds; cumulative addition at intervals of 10 minutes; 37° C.; read-out: Min. concn. causing increment of ileal contraction
Where a name gives a salt, the structure may show the parent alone.
measurement_name: minimal effective concentration (µM)
The figure you give is taken to be in µM; do not add the unit.

**Q:** Which measured minimal effective concentration value corresponds to CN1[C@@H]2CC[C@H]1C[C@@H](NC(=O)c1cc(Cl)c(N)cc1OC1CCOCC1)C2 [Example 33, hydrochloride] ?
**A:** 1.8

**Q:** Would you kindly repeat that for CCC#CC(CC)Oc1cc(N)c(Cl)cc1C(=O)N[C@H]1C[C@H]2CC[C@@H](C1)N2C (stereo partly drawn) [Example 25, hydrochloride] ?
**A:** 1

**Q:** What would you report for CC#CC(CC)Oc1cc(N)c(Cl)cc1C(=O)N[C@H]1C[C@H]2CC[C@@H](C1)N2C (stereo partly drawn) [Example 27, hydrochloride] ?
**A:** 0.25

---

System: contraction of guinea pig ileum induced by electrical field stimulation (acetylcholine release)
run_description: Effect of increasing contraction of guinea pig ileum induced by electrical field stimulation
Type: cell-based
reported_conditions: Cavia porcellus, 10 min, electrical field stimulation once per 10 seconds; cumulative addition at intervals of 10 minutes; 37° C.; read-out: Min. concn. causing increment of ileal contraction
Method: Effect of increasing contraction of guinea pig ileum induced by electrical field stimulation This experiment was made according to the method of Sanger et al. [see Br. J. Pharmacol., 91, 77-87 (1987)]. The longitudinal muscle of the nonterminal ileum of a guinea pig was separated and vertically suspended in the Krebs-Henseleit solution (37° C.) in a Magnus tube by applying a load of 0.5 g to the end of the muscle. […] The contraction of the muscle was isometrically determined. […]
Structures can show the parent of a compound that is named as a salt.
Please use rule met for minimal effective concentration under 0.2 µM and rule not met for everything else, ties included.

**Q:** Take the compound C#CCOc1cc(N)c(Cl)cc1C(=O)N[C@H]1C[C@H]2CC[C@@H](C1)N2C [Example 21, hydrochloride] and say whether its minimal effective concentration is less than 0.2 µM.
**A:** rule met

**Q:** Query CN1[C@@H]2CC[C@H]1C[C@@H](NC(=O)c1cc(Cl)c(N)cc1OCCCC#N)C2 [Example 31, hydrochloride] next
**A:** rule not met

**Q:** What would you report for C#CC(CCC)Oc1cc(N)c(Cl)cc1C(=O)N[C@H]1C[C@H]2CC[C@@H](C1)N2C (stereo partly shown) [Example 29, hydrochloride] ?
**A:** rule not met

**Q:** Then C#CC(C)Oc1cc(N)c(Cl)cc1C(=O)N[C@H]1C[C@H]2CC[C@@H](C1)N2C (stereo partly shown) [Example 24, hydrochloride] ?
**A:** rule met

**Q:** Same read-out for C#CC(CC)Oc1cc(N)c(Cl)cc1C(=O)N[C@H]1C[C@H]2CC[C@@H](C1)N2C (stereo partly shown) [Example 20, hydrochloride] ?
**A:** rule met

**Q:** Similarly, C#CCC(C)Oc1cc(N)c(Cl)cc1C(=O)N[C@H]1C[C@H]2CC[C@@H](C1)N2C (stereo partly shown) [Example 40, hydrochloride] ?
**A:** rule not met

**Q:** Try this compound too: CCC#CC(C)Oc1cc(N)c(Cl)cc1C(=O)N[C@H]1C[C@H]2CC[C@@H](C1)N2C (stereo partly shown) [Example 28, hydrochloride]
**A:** rule not met

Cited source for all entries: patent US5389643A
